Tested on: Streptococcus pyogenes SSI-9
experiment summary: Antibacterial activity assay of bead-derived peptides (three concentrations)
Type: cell-based
Set-up: key: +++: inhibition by the 640-fold diluted peptide solution; ++: inhibition by the 160-fold diluted solution; +: inhibition by the 40-fold diluted solution; -: no inhibition
test conditions: S. pyogenes, bead-derived peptide solution, three concentrations
Where a SMILES comes first, the peptide text is derived from it. [ ]: non-standard residue; d: D form. The star is where a group is joined. NHCH2CH2OH = OCCN*; For = O=C*
metric: antibacterial activity

Solved entries:
CC(C)C[C@@H](NC(=O)[C@H](Cc1c[nH]c2ccccc12)NC(=O)[C@H](NC(=O)[C@H](Cc1c[nH]c2ccccc12)NC(=O)[C@@H](CC(C)C)NC(=O)[C@H](Cc1c[nH]c2ccccc12)NC(=O)[C@H](NC(=O)[C@@H](NC(=O)[C@H](NC(=O)[C@H](C)NC(=O)[C@H](NC(=O)[C@H](C)NC(=O)CNC(=O)[C@@H](NC=O)C(C)C)C(C)C)C(C)C)C(C)C)C(C)C)C(C)C)C(=O)N[C@@H](Cc1c[nH]c2ccccc12)C(=O)NCCO [compound 1844] (For-VGA[dV]A[dV]V[dV]W[dL]W[dV]W[dL]W-NHCH2CH2OH)	++
CC(C)C[C@@H](NC(=O)[C@H](C)NC(=O)CNC(=O)[C@@H](NC=O)C(C)C)C(=O)N[C@@H](C)C(=O)N[C@@H](C(=O)N[C@H](C(=O)N[C@@H](C(=O)N[C@@H](Cc1c[nH]c2ccccc12)C(=O)N[C@@H](C(=O)N[C@@H](Cc1c[nH]c2ccccc12)C(=O)N[C@H](CC(C)C)C(=O)N[C@@H](Cc1c[nH]c2ccccc12)C(=O)N[C@@H](C(=O)N[C@@H](Cc1c[nH]c2ccccc12)C(=O)NCCO)C(C)C)[C@H](C)O)C(C)C)C(C)C)C(C)C [compound 5657] (For-VGA[dL]A[dV]V[dV]W[dT]W[dL]W[dV]W-NHCH2CH2OH)	-
CC(C)C[C@@H](NC(=O)[C@H](C)NC(=O)[C@H](NC(=O)[C@H](C)NC(=O)CNC(=O)[C@@H](NC=O)C(C)C)C(C)C)C(=O)N[C@H](C(=O)N[C@@H](C(=O)N[C@@H](Cc1c[nH]c2ccccc12)C(=O)N[C@@H](C(=O)N[C@@H](Cc1c[nH]c2ccccc12)C(=O)N[C@H](CC(C)C)C(=O)N[C@@H](Cc1c[nH]c2ccccc12)C(=O)N[C@H](CC(C)C)C(=O)N[C@@H](Cc1c[nH]c2ccccc12)C(=O)NCCO)C(C)C)C(C)C)C(C)C [compound 12099] (For-VGA[dV]A[dL]V[dV]W[dV]W[dL]W[dL]W-NHCH2CH2OH)	+
CC(C)C[C@@H](NC(=O)[C@H](C)NC(=O)CNC(=O)[C@@H](NC=O)C(C)C)C(=O)N[C@@H](C)C(=O)N[C@H](CC(C)C)C(=O)N[C@H](C(=O)N[C@H](CC(C)C)C(=O)N[C@@H](Cc1c[nH]c2ccccc12)C(=O)N[C@H](CC(C)C)C(=O)N[C@@H](Cc1c[nH]c2ccccc12)C(=O)N[C@@H](C(=O)N[C@@H](Cc1c[nH]c2ccccc12)C(=O)N[C@@H](C(=O)N[C@@H](Cc1c[nH]c2ccccc12)C(=O)NCCO)C(C)C)[C@H](C)O)C(C)C [compound 12989] (For-VGA[dL]A[dL]V[dL]W[dL]W[dT]W[dV]W-NHCH2CH2OH)	+
CC(C)C[C@@H](NC(=O)[C@H](C)NC(=O)[C@H](NC(=O)[C@H](C)NC(=O)CNC(=O)[C@@H](NC=O)C(C)C)C(C)C)C(=O)N[C@H](C(=O)N[C@@H](C(=O)N[C@@H](Cc1c[nH]c2ccccc12)C(=O)N[C@@H](C(=O)N[C@@H](Cc1c[nH]c2ccccc12)C(=O)N[C@H](CC(C)C)C(=O)N[C@@H](Cc1c[nH]c2ccccc12)C(=O)N[C@@H](C(=O)N[C@@H](Cc1c[nH]c2ccccc12)C(=O)NCCO)C(C)C)C(C)C)[C@H](C)O)C(C)C [compound 7131] (For-VGA[dV]A[dL]V[dT]W[dV]W[dL]W[dV]W-NHCH2CH2OH)	-
CC(C)C[C@@H](NC(=O)[C@H](C)NC(=O)CNC(=O)[C@@H](NC=O)C(C)C)C(=O)N[C@@H](C)C(=O)N[C@H](CC(C)C)C(=O)N[C@H](C(=O)N[C@H](CC(C)C)C(=O)N[C@@H](Cc1c[nH]c2ccccc12)C(=O)N[C@@H](C(=O)N[C@@H](Cc1c[nH]c2ccccc12)C(=O)N[C@H](CC(C)C)C(=O)N[C@@H](Cc1c[nH]c2ccccc12)C(=O)N[C@@H](C(=O)N[C@@H](Cc1c[nH]c2ccccc12)C(=O)NCCO)C(C)C)[C@H](C)O)C(C)C [compound 5561] (For-VGA[dL]A[dL]V[dL]W[dT]W[dL]W[dV]W-NHCH2CH2OH)	-

# batch: return antibacterial activity for each of the 2 molecules below
1. CNC(=O)C[C@@H](NC(=O)[C@@H](NC(=O)[C@H](NC(=O)[C@H](C)NC(=O)[C@@H](CC(C)C)NC(=O)[C@H](C)NC(=O)CNC(=O)[C@@H](NC=O)C(C)C)C(C)C)C(C)C)C(=O)N[C@@H](Cc1c[nH]c2ccccc12)C(=O)N[C@@H](C(=O)N[C@@H](Cc1c[nH]c2ccccc12)C(=O)N[C@H](CC(C)C)C(=O)N[C@@H](Cc1c[nH]c2ccccc12)C(=O)N[C@@H](C(=O)N[C@@H](Cc1c[nH]c2ccccc12)C(=O)NCCO)C(C)C)C(C)C [compound 8732] (For-VGA[dL]A[dV]V[dD](NHMe)W[dV]W[dL]W[dV]W-NHCH2CH2OH)
2. CC(C)C[C@@H](NC(=O)[C@H](C)NC(=O)[C@H](NC(=O)[C@H](C)NC(=O)CNC(=O)[C@@H](NC=O)C(C)C)[C@H](C)O)C(=O)N[C@H](C(=O)N[C@H](CC(C)C)C(=O)N[C@@H](Cc1c[nH]c2ccccc12)C(=O)N[C@@H](C(=O)N[C@@H](Cc1c[nH]c2ccccc12)C(=O)N[C@@H](C(=O)N[C@@H](Cc1c[nH]c2ccccc12)C(=O)N[C@H](CC(C)C)C(=O)N[C@@H](Cc1c[nH]c2ccccc12)C(=O)NCCO)C(C)C)[C@H](C)O)C(C)C [compound 7015] (For-VGA[dT]A[dL]V[dL]W[dT]W[dV]W[dL]W-NHCH2CH2OH)

["-", "-"]
